System: HepG2 cells
assayProtocol: Test Example 2: inhibition of apolipoprotein B secretion from HepG2 cells, ELISA (also used for metabolites in Test Example 8)
Type: cell-based
studyConditions: Homo sapiens, 24 hours, apo B in supernatant by ELISA, read-out: Test Example 2 Inhibition of apo B secretion IC50
parameter: IC50 (nM)

{"compound": "CCOC(=O)CC(COC(=O)Cc1ccc(NC(=O)c2ccccc2-c2ccc(C(F)(F)F)cc2)c(C(=O)N(C)C)c1)(C(=O)OCC)c1ccccc1 (stereo not drawn) [Example 2-74]", "assayedSystem": "HepG2 cells", "IC50 / nM": 0.84}

1. CCOC(=O)C(COC(=O)Cc1ccc(NC(=O)c2ccccc2-c2ccc(C(F)(F)F)cc2)c(C(=O)N(C)C)c1)(C(=O)OCC)c1sccc1C [Example 2-108]
2. CCOC(=O)C(COC(=O)Cc1ccc(NC(=O)c2ccccc2-c2ccc(C(F)(F)F)cc2F)c(C(=O)N(C)C)c1)(C(=O)OCC)c1ccccc1 [Example 2-57]
Would you mind telling me which has the lower recorded IC50 between 1 and 2 ? Reply with the label of the item you choose. 2
